Molecular target: mutant MGL (mut-MGLL 11-313 L179S L186S) (Homo sapiens, UniProt Q99685, L169S/L176S)
Construct: purified mutant MGL (mut-MGLL 11-313 L179S L186S)
Experiment: MGL Enzyme Activity Assay, purified mutant MGL, 4MU-B substrate
Settings: mutant MGL 5 nM, 4MU-B 10 μM, 37° C.; read-out: MGL mutant inh IC50
Metric: IC50 (nM)
# value in nM; strip the unit string

Some entries whose results are on file:
Compound	Test System	IC50 / nM
O=C(NC1CN(C2CN(C(=O)c3ccc4cc(-c5ccccc5)ccc4c3)C2)C1)c1ccccc1 [Cpd 34]	mutant MGL (mut-MGLL 11-313 L179S L186S) (Homo sapiens, UniProt Q99685, L169S/L176S)	332
O=C(NC1CN(C2CN(C(=O)c3ccc(Cc4ccc(C(F)(F)F)cc4)cc3)C2)C1)c1ccccc1 [Cpd 26]	mutant MGL (mut-MGLL 11-313 L179S L186S) (Homo sapiens, UniProt Q99685, L169S/L176S)	157

*Q* # query: IC50 of entry O=C(NC1CN(C2CN(C(=O)c3cc4ccc(-c5ccccc5)cc4s3)C2)C1)c1nccs1 [Cpd 6]
*A* 8

---

Molecular target: mutant MGL (mut-MGLL 11-313 L179S L186S) (Homo sapiens, UniProt Q99685, L169S/L176S)
Construct: purified mutant MGL (mut-MGLL 11-313 L179S L186S)
Assay: MGL Enzyme Activity Assay, purified mutant MGL, 4MU-B substrate
Conditions: mutant MGL 5 nM, 4MU-B 10 μM, 37° C.; read-out: MGL mutant inh IC50
pIC50: −log10 of the molar value.
Label rule, in plain words: pIC50 of 7 and up is YES, under 7 is NO.

Example entries begin here.
Chemical Structure	Discrete Label
O=C(NC1CN(C2CN(C(=O)c3ccc(-c4ccccc4)cc3)C2)C1)c1nccs1	NO
O=C(NC1CN(C2CN(C(=O)c3ccc4nc(-c5ccccc5)oc4c3)C2)C1)c1ccccc1	NO

*Q* Kindly determine if pIC50 recorded for O=C(NC1CN(C2CN(C(=O)c3ccc4c(-c5ccccc5)cccc4c3)C2)C1)c1nccs1 is above or exactly 7.
*A* YES

*Q* Would you kindly repeat that for Cc1c(C(=O)N2CC(N3CC(NC(=O)c4nccs4)C3)C2)sc2ccc(Cl)cc12 ?
*A* YES

*Q* Same read-out for O=C(NC1CN(C2CN(C(=O)c3ccc(-c4ccccc4)cc3)C2)C1)c1ccccc1 ?
*A* NO

*Q* O=C(NC1CN(C2CN(C(=O)c3ccc4nc(-c5ccc(Cl)cc5)oc4c3)C2)C1)c1nccs1 , same question.
*A* NO

*Q* Note, next up: O=C(NC1CN(C2CN(C(=O)c3ccc(Cc4ccc(C(F)(F)F)cc4)cc3)C2)C1)c1nccs1
*A* YES

---

Biological target: wild type MGL (wt-MGLL 6H-11-313) (Homo sapiens)
Sequence (Q99685 1-303): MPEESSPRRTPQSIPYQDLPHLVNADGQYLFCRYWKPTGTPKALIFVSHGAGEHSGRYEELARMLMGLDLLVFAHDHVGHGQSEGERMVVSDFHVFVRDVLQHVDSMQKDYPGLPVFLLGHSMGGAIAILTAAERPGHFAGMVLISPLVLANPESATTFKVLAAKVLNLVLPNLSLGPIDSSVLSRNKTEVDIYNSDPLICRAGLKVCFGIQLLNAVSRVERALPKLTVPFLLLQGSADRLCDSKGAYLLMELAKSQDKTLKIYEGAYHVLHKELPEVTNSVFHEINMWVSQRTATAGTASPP
Entries and their pIC50 values follow.
# reply with the number alone; pIC50 is -log10 of concentration in mol/L

Chemical Structure	Numeric Result
O=C(NC1CN(C2CN(C(=O)c3cc4ccc(C(F)(F)F)cc4s3)C2)C1)c1cscn1	7.85
Cc1cc(-c2ccc(C(F)(F)F)cc2)ccc1C(=O)N1CC(N2CC(NC(=O)c3nccs3)C2)C1	7.54

*Q* Field request: pIC50 | item: O=C(NC1CN(C2CN(C(=O)c3ccc(-c4cccc(C(F)(F)F)c4)cc3)C2)C1)c1cscn1
*A* 8.10

---

Measured activity at 1 µM of individual entries
Molecular target: MGL (Rattus norvegicus)
Construct: one g rat brain was homogenized using a Polytron homogenizer; from tissue; host or cells: rat brain homogenate
Sequence (Q8R431 1-303): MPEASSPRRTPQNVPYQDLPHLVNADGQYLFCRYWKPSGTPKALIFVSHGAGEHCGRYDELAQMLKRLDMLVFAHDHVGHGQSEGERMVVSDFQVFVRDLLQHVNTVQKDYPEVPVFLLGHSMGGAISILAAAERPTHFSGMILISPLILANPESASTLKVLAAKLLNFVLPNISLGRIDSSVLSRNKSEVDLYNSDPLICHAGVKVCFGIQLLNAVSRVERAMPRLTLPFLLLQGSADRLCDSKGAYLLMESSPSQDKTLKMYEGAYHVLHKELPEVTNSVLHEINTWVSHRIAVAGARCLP
Assay: 2-AG Accumulation Assay in rat brain homogenate
Format: biochemical
Conditions: compound @1 µM, percent of vehicle, read-out: Rat Brain 2AG % VehCntrl (%) @1 µM
Lab book: enter the figure in %, no units written.

Compound	Test System	activity at 1 µM / %
O=C(NC1CN(C2CN(C(=O)c3ccc(-c4ccc(C(F)(F)F)cc4)cc3)C2)C1)c1cscn1 [Cpd 14]	MGL (Rattus norvegicus)	187
O=C(c1sc2cc(Br)ccc2c1Cl)N1CC(N2CC(N3Cc4ccccc4C3=O)C2)C1 [Cpd 73]	MGL (Rattus norvegicus)	295
Cc1cc(-c2ccc(C(F)(F)F)cc2)ccc1C(=O)N1CC(N2CC(NC(=O)c3nccs3)C2)C1 [Cpd 63]	MGL (Rattus norvegicus)	185

*Q* Give the measured activity at 1 µM of Cc1c(C(=O)N2CC(N3CC(N4Cc5ccccc5C4=O)C3)C2)sc2cc(C(F)(F)F)ccc12 [Cpd 101] .
*A* 534

---

Target: wild type MGL (wt-MGLL 6H-11-313) (Homo sapiens)
Metric: IC50

Example results:
Chemical Structure	Test System	Metric	Result
Cc1c(C(=O)N2CC(N3CC(NC(=O)c4cscn4)C3)C2)sc2cc(C(F)(F)F)ccc12	wild type MGL (wt-MGLL 6H-11-313) (Homo sapiens)	IC50	< 5 nM
Cc1c(C(=O)N2CC(N3CC(NC(=O)c4nccs4)C3)C2)sc2cc(-c3ccccc3)ccc12	wild type MGL (wt-MGLL 6H-11-313) (Homo sapiens)	IC50	< 5 nM
Cc1c(C(=O)N2CC(N3CC(N4Cc5ccccc5C4=O)C3)C2)sc2cc(C(F)(F)F)ccc12	wild type MGL (wt-MGLL 6H-11-313) (Homo sapiens)	IC50	6 nM

*Q* What value of IC50 has been reported for the following compound? CS(=O)(=O)c1cccc(-c2ccc3cc(C(=O)N4CC(N5CC(N6Cc7ccccc7C6=O)C5)C4)sc3c2)c1
*A* < 5 nM

*Q* Another: O=C(NC1CN(C2CN(C(=O)c3ccc(-c4cccc(C(F)(F)F)c4)cc3F)C2)C1)c1nccs1
*A* < 5 nM

---

Catalogue of compounds with associated Kd
Target: mutant MGL (Homo sapiens, UniProt Q99685, L169S/L176S)
Construct: purified mutant MGL (mut-MGLL 11-313 L179S L186S)
Assay: MGL ThermoFluor Assay - Mutant
Details: 0.07 mg/ml mutant MGL, 100 μM ANS, pH 7.0

// solved cases for Kd follow
Compound	Result
CS(=O)(=O)c1cccc(-c2ccc3cc(C(=O)N4CC(N5CC(N6Cc7ccccc7C6=O)C5)C4)sc3c2)c1	33.2 nM
O=C(NC1CN(C2CN(C(=O)c3ccc(Cc4ccccc4)cc3)C2)C1)c1ccccc1	154 nM
O=C(NC1CN(C2CN(C(=O)c3cc4c(C(F)(F)F)cccc4s3)C2)C1)c1nccs1	128 nM
O=C(NC1CN(C2CN(C(=O)c3ccc4c(ccn4-c4ccc(C(F)(F)F)cc4)c3)C2)C1)c1nccs1	6 nM
O=C(NC1CN(C2CN(C(=O)c3sc4cc(C(F)(F)F)ccc4c3Cl)C2)C1)c1cscn1	2.2 nM
O=C(c1ccc(-c2ccc(C(F)(F)F)s2)cc1)N1CC(N2CC(N3Cc4ccccc4C3=O)C2)C1	10 nM
O=C(c1ccc2nc(-c3ccccc3)oc2c1)N1CC(N2CC(N3Cc4ccccc4C3=O)C2)C1	60 nM
Cc1c(C(=O)N2CC(N3CC(N4Cc5scnc5C4=O)C3)C2)sc2cc(C(F)(F)F)ccc12	33 nM
O=C(c1ccc2c(ccn2S(=O)(=O)c2ccccc2)c1)N1CC(N2CC(N3Cc4ccccc4C3=O)C2)C1	50 nM
O=C(NC1CN(C2CN(C(=O)c3cc4ccc(C(F)(F)F)cc4s3)C2)C1)c1nccs1	10 nM

*Q* What measured Kd goes with O=C(NC1CN(C2CN(C(=O)c3ccc4nc(-c5ccccc5)sc4c3)C2)C1)c1nccs1 ?
*A* 143 nM

*Q* Ok, now O=C(c1sc2cc(F)ccc2c1Cl)N1CC(N2CC(N3Cc4ccccc4C3=O)C2)C1
*A* 47 nM

*Q* Would you mind doing O=C(NC1CN(C2CN(C(=O)c3cc4ccc(C(F)(F)F)cc4s3)C2)C1)c1cscn1 as well?
*A* 31.9 nM

*Q* Proceed to O=C(NC1CN(C2CN(C(=O)c3sc4cc(C(F)(F)F)ccc4c3Cl)C2)C1)c1nccs1
*A* 0.7 nM

*Q* Queued: O=C(NC1CN(C2CN(C(=O)c3ccc4c(cnn4-c4ccccc4)c3)C2)C1)c1nccs1
*A* 73.4 nM

*Q* Same question, O=C(NC1CN(C2CN(C(=O)c3ccc4c(ccn4-c4ccccc4)c3)C2)C1)c1nccs1 this time
*A* 50 nM

Data origin: patent US8759333B2
